Each recorded value in this set is attributed to the supplement of paper PMC9233669.

# Tested on: biotinyl-Val-oxazolone
# assay.name: self-aminoacylation, catalytic enhancement (BVO) (fold over background); higher = more active; k-Seq, kA / k0A0; sequences stand for … in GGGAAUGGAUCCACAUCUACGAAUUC…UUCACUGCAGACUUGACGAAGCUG
This sample holds only a part of the variants without activity.
measured.attribute: self-aminoacylation
API doc: respond with a numeric literal and nothing else, no unit.

Prompt line: # value lookup — system biotinyl-Val-oxazolone, readout self-aminoacylation, item AUUCACCUAGGUCAUCGGGCC [Fam2.2 aminoacylation ribozyme variant]
Response line: 2.97

Prompt line: Also AUCCACCUAGGUCAUCGGCUG [Fam2.2 aminoacylation ribozyme variant] ?
Response line: 2.29

Prompt line: Also AUUUCCCUGGUUAUCGAGUGA [Fam2.1 aminoacylation ribozyme variant] ?
Response line: 4.39

Prompt line: Also CCACACUUCAAGCAAUCGGGU [Fam1B.1 aminoacylation ribozyme variant] ?
Response line: 1.8

Prompt line: Also GCACACUUCAAGCAAUCGGUU [Fam1B.1 aminoacylation ribozyme variant] ?
Response line: 2.86

Prompt line: Also AAGUUUGCCAAUAGUCGCAUG [Fam3.1 aminoacylation ribozyme variant] ?
Response line: 1.59

====

For each of the sequences below, state its self-aminoacylation.
# Test system: biotinyl-Ile-oxazolone
# assay.name: self-aminoacylation, catalytic enhancement (BIO) (fold over background); higher = more active; k-Seq, kA / k0A0; sequences stand for … in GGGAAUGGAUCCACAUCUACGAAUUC…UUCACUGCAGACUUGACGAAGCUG
Fewer inactive variants are shown than the library holds.
API doc: respond with a numeric literal and nothing else, no unit.

Prompt line: Find the recorded self-aminoacylation belonging to AUUCACCCACGUCAUCGGGUG [Fam2.2 aminoacylation ribozyme variant] and report it.
Response line: 2.76

Prompt line: Also AUUCACCUAGGUCAUCGCUUG [Fam2.2 aminoacylation ribozyme variant] ?
Response line: 1.18

Prompt line: Also CCACACUUCAAGCAAUCGUUC [Fam1B.1 aminoacylation ribozyme variant] ?
Response line: 0.714

Prompt line: Also AACUUUGCUACUAGUCGCAAG [Fam3.1 aminoacylation ribozyme variant] ?
Response line: 2.14

Prompt line: Also CUACUUCGAACAAGCGGUCUG [Fam1A.1 aminoacylation ribozyme variant] ?
Response line: 0.727

Prompt line: Also AAGUUUGCUAAUAAUGGCAAG [Fam3.1 aminoacylation ribozyme variant] ?
Response line: 0.644

Prompt line: Also AUUGCCCCGGUCAUCGAGUGA [Fam2.1 aminoacylation ribozyme variant] ?
Response line: 2.79

Prompt line: Also CCACACUGCAAGCAAUCGGUG [Fam1B.1 aminoacylation ribozyme variant] ?
Response line: 3.4

Prompt line: Also AAGCUUGCUAAUAGUCGCAAG [Fam3.1 aminoacylation ribozyme variant] ?
Response line: 1.85

Prompt line: Also AUUUACCUGGUCAUCGAGUGA [Fam2.1 aminoacylation ribozyme variant] ?
Response line: 4

Prompt line: Also AUUCACCUGGGUCAUCGGGGG [Fam2.2 aminoacylation ribozyme variant] ?
Response line: 4.25

Prompt line: Also CCGAACUUCAAGCAAUCGGUC [Fam1B.1 aminoacylation ribozyme variant] ?
Response line: 1.26

====

# Tested on: biotinyl-Val-oxazolone
# assay.name: self-aminoacylation, catalytic enhancement (BVO) (fold over background); higher = more active; k-Seq, kA / k0A0; sequences stand for … in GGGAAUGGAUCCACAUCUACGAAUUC…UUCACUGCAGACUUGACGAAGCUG
Fewer inactive variants are shown than the library holds.
Criterion: self-aminoacylation meeting or surpassing 1. Met: MET. Not met: NOT MET.

Prompt line: Please tell me: is the sequence AAGUUUACUAAUAGUCGCAAU [Fam3.1 aminoacylation ribozyme variant] at or over 1 in terms of self-aminoacylation?
Response line: MET

Prompt line: Also AUCACCCUGGUCAUCGAAUGA [Fam2.1 aminoacylation ribozyme variant] ?
Response line: MET

Prompt line: Also AAGUUUGCUAAUAGUCGCAUC [Fam3.1 aminoacylation ribozyme variant] ?
Response line: NOT MET

Prompt line: Also AUUACCCUGGUCAUCUGGUGA [Fam2.1 aminoacylation ribozyme variant] ?
Response line: MET

Prompt line: Also AAGUUUGCUAAUCGCCGCAAG [Fam3.1 aminoacylation ribozyme variant] ?
Response line: MET

Prompt line: Also AUUACCCGGGUCCUCGAGUGA [Fam2.1 aminoacylation ribozyme variant] ?
Response line: MET

Prompt line: Also CCACACUGUAAGCAAUCGGUC [Fam1B.1 aminoacylation ribozyme variant] ?
Response line: MET

Prompt line: Also AUUCACCUAGGUCCACGGGUG [Fam2.2 aminoacylation ribozyme variant] ?
Response line: MET

Prompt line: Also AAGUUUGCUAAUAGUCGGAAU [Fam3.1 aminoacylation ribozyme variant] ?
Response line: MET

Prompt line: Also GUUCACCUAGGUCAUCGGGCG [Fam2.2 aminoacylation ribozyme variant] ?
Response line: MET

Prompt line: Also CUACUUUACACAAUCGGUCUG [Fam1A.1 aminoacylation ribozyme variant] ?
Response line: NOT MET

Prompt line: Also CUAGUUCAAAUAAUCGGUCUG [Fam1A.1 aminoacylation ribozyme variant] ?
Response line: NOT MET

Prompt line: Also CCACACUUCAAGCCAUAGGUC [Fam1B.1 aminoacylation ribozyme variant] ?
Response line: NOT MET

Prompt line: Also CUACUUCACACAAUCUGUCUG [Fam1A.1 aminoacylation ribozyme variant] ?
Response line: NOT MET

Prompt line: Also CUGCUUCCAACAAUCGGUCUG [Fam1A.1 aminoacylation ribozyme variant] ?
Response line: NOT MET

Prompt line: Also AUCACCCUGGUCAUCGAGGGA [Fam2.1 aminoacylation ribozyme variant] ?
Response line: MET

Prompt line: Also CCAAACUUCAAGCAAUCGGAC [Fam1B.1 aminoacylation ribozyme variant] ?
Response line: MET

Prompt line: Also CUAUUUCAAAUAAUCGGUCUG [Fam1A.1 aminoacylation ribozyme variant] ?
Response line: NOT MET

Prompt line: Also AAGUCUGCUAAUAGUCGCAGG [Fam3.1 aminoacylation ribozyme variant] ?
Response line: MET

Prompt line: Also CUACUACAAACAACCGGUCUG [Fam1A.1 aminoacylation ribozyme variant] ?
Response line: MET

====

# Test system: biotinyl-Leu-oxazolone
# assay.name: self-aminoacylation, catalytic enhancement (BLO) (fold over background); higher = more active; k-Seq, kA / k0A0; sequences stand for … in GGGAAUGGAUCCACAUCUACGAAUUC…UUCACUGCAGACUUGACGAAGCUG
Variants at the floor of the assay were thinned out.
measured.attribute: self-aminoacylation
API doc: respond with a numeric literal and nothing else, no unit.

Prompt line: # value lookup — system biotinyl-Leu-oxazolone, readout self-aminoacylation, item UUUACCCUGGUCAUCGAGUUA [Fam2.1 aminoacylation ribozyme variant]
Response line: 6.2

Prompt line: Also CCACAUUUCAAGCACUCGGUC [Fam1B.1 aminoacylation ribozyme variant] ?
Response line: 1.16

Prompt line: Also CCACACGCCAAGCAAUCGGUC [Fam1B.1 aminoacylation ribozyme variant] ?
Response line: 0.862

Prompt line: Also AAGUUUGUUGAUAGUCGCAAG [Fam3.1 aminoacylation ribozyme variant] ?
Response line: 1.09

Prompt line: Also AGUCACCUAUGUCAUCGGGUG [Fam2.2 aminoacylation ribozyme variant] ?
Response line: 4.74

Prompt line: Also AUUACCCUGGUCAUCCAGUUA [Fam2.1 aminoacylation ribozyme variant] ?
Response line: 0.855

Prompt line: Also CUUACCCUGGUCAUUGAGUGA [Fam2.1 aminoacylation ribozyme variant] ?
Response line: 7.58

====

For each of the sequences below, state its self-aminoacylation.
# Test system: biotinyl-Val-oxazolone
# assay.name: self-aminoacylation, catalytic enhancement (BVO) (fold over background); higher = more active; k-Seq, kA / k0A0; sequences stand for … in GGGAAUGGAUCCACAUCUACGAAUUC…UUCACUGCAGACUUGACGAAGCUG
This sample holds only a part of the variants without activity.
API doc: respond with a numeric literal and nothing else, no unit.

Prompt line: # value lookup — system biotinyl-Val-oxazolone, readout self-aminoacylation, item CUCCUUCAAACAAUCGGUCUG [Fam1A.1 aminoacylation ribozyme variant]
Response line: 1.2

Prompt line: Also ACUCACCUAGGUCAUCGGGUA [Fam2.2 aminoacylation ribozyme variant] ?
Response line: 10.1

Prompt line: Also CUACUUCAAAAAAUCUGUCUG [Fam1A.1 aminoacylation ribozyme variant] ?
Response line: 0.699

Prompt line: Also AUUACCCUGGUCAGCGGGUGA [Fam2.1 aminoacylation ribozyme variant] ?
Response line: 6.36

Prompt line: Also AUUCACAUAGGUCAUCGGCUG [Fam2.2 aminoacylation ribozyme variant] ?
Response line: 1.78

Prompt line: Also AUUACUCUGGUCAUCGAGUGA [Fam2.1 aminoacylation ribozyme variant] ?
Response line: 3.78

Prompt line: Also AUUCACUUAGGUCAUCGUGUG [Fam2.2 aminoacylation ribozyme variant] ?
Response line: 0.777

Prompt line: Also CCACACUUCAAACAAUCGCUC [Fam1B.1 aminoacylation ribozyme variant] ?
Response line: 1.33

Prompt line: Also AUUACCCUGGUAAGCGAGUGA [Fam2.1 aminoacylation ribozyme variant] ?
Response line: 3.21

Prompt line: Also CCACACAUCAAGCAAUCGGAC [Fam1B.1 aminoacylation ribozyme variant] ?
Response line: 1.03

Prompt line: Also AUUCACGUAGGACAUCGGGUG [Fam2.2 aminoacylation ribozyme variant] ?
Response line: 4.37

Prompt line: Also AUUCACCUAGGUCACCCGGUG [Fam2.2 aminoacylation ribozyme variant] ?
Response line: 7.55

Prompt line: Also AUUACCCUCAUCAUCGAGUGA [Fam2.1 aminoacylation ribozyme variant] ?
Response line: 5.02

Prompt line: Also AAGAUUGCUAAUAGUCGAAAG [Fam3.1 aminoacylation ribozyme variant] ?
Response line: 0.945

Prompt line: Also AUUUCCCUAGUCAUCGAGUGA [Fam2.1 aminoacylation ribozyme variant] ?
Response line: 4.03

Prompt line: Also CUACUUCAAACAACCGGUCCG [Fam1A.1 aminoacylation ribozyme variant] ?
Response line: 1.01

Prompt line: Also AUUACCCUAGUCAUCGAAUGA [Fam2.1 aminoacylation ribozyme variant] ?
Response line: 1.06

Prompt line: Also CCACACUUGAAGGAAUCGGUC [Fam1B.1 aminoacylation ribozyme variant] ?
Response line: 1.39

Prompt line: Also CCACACAUCAAACAAUCGGUC [Fam1B.1 aminoacylation ribozyme variant] ?
Response line: 0.92

Prompt line: Also AUCACCGUGGUCAUCGAGUGA [Fam2.1 aminoacylation ribozyme variant] ?
Response line: 4.01

Prompt line: Also CUACUACAAACAAUGGGUCUG [Fam1A.1 aminoacylation ribozyme variant] ?
Response line: 1.14

Prompt line: Also CCACACUUCAAGCAAGUGGUC [Fam1B.1 aminoacylation ribozyme variant] ?
Response line: 0.611

Prompt line: Also CCACUUCAAACAAUCGGACUG [Fam1A.1 aminoacylation ribozyme variant] ?
Response line: 1.1

Prompt line: Also AGUCACCUGGGUCAUCGGGUG [Fam2.2 aminoacylation ribozyme variant] ?
Response line: 4.96

Prompt line: Also AUUUACCUAGGUCAUCGGGUG [Fam2.2 aminoacylation ribozyme variant] ?
Response line: 15.4

Prompt line: Also CUACUUAAAACAAUCGGUUUG [Fam1A.1 aminoacylation ribozyme variant] ?
Response line: 0.627

Prompt line: Also AUUCACCUAGGUCACCGGGCG [Fam2.2 aminoacylation ribozyme variant] ?
Response line: 4.43
